The measured values listed here are drawn from paper doi:10.1101/2023.07.17.549407.

Target: T1, carboxy-terminus of Hsp70 interacting protein (CHIP), recombinant (human, UniProt Q9UNE7 1-303)
T1 sequence: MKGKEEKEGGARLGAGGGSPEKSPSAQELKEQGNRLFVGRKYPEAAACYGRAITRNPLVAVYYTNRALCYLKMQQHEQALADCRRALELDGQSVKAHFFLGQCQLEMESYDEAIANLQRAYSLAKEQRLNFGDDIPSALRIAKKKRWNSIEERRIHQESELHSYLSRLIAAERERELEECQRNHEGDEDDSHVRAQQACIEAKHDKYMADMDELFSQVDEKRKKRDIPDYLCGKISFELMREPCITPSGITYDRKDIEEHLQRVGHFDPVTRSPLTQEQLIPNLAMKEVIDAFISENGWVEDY
Assay: fluorescence polarisation
Where no end group is shown, it is not given here. Ahx = NCCCCCC(=O)O

{"Binder": "{FAM-Ahx}-IFRPD [labeled CHIC2 peptide (FAM-Ahx-IFRPD)]", "Kd [nM]": 148}
